Species: Rattus norvegicus
Assay: Open TG-GATES - Regimen: Single
Assay type: toxicity, organism-based, Sprague-Dawley
Parameters: regimen Single, gender Male, age 6 weeks
Conditions: in vivo, po, 0 mg/kg, 24 h, tissue Plasma, route gavage, dose level Control
readoutLabel: TBIL (mg/dL)
Give bare numbers, in mg/dL.

Report TBIL for every entry below.
1. NC1=NC(=O)C(c2ccccc2)O1 (stereo not drawn)
2. CC(C)NNC(=O)c1ccncc1
3. CCCc1cc(=O)[nH]c(=S)[nH]1
4. O=C(OC[C@H]1O[C@@H](OC(=O)c2cc(O)c(O)c(OC(=O)c3cc(O)c(O)c(O)c3)c2)[C@H](OC(=O)c2cc(O)c(O)c(OC(=O)c3cc(O)c(O)c(O)c3)c2)[C@@H](OC(=O)c2cc(O)c(O)c(OC(=O)c3cc(O)c(O)c(O)c3)c2)[C@@H]1OC(=O)c1cc(O)c(O)c(OC(=O)c2cc(O)c(O)c(O)c2)c1)c1cc(O)c(O)c(OC(=O)c2cc(O)c(O)c(O)c2)c1
5. CCOc1ccc(NC(C)=O)cc1

Key:
0.032
0
0.3
0.4
0.038

Measured values drawn from ChEMBL document CHEMBL3885861 for this set.
